Catalogue of molecules with associated pKi
# TESTED SYSTEM: CDK2/Cyclin E1 full length (Homo sapiens (Human))
# TEST: CDK2/Cyclin E1 full length mobility shift assay
pKi: −log10 of the molar value.
REPORTED PROPERTY: pKi

MOLECULE | TEST VALUE
C[C@H]1CCN1C(=O)O[C@@H]1CC[C@H](c2cc(NC(=O)c3ccnn3CCN(C)C)n[nH]2)C1 | 8.76
CC[C@H](C)NC(=O)O[C@@H]1CC[C@H](c2cc(NC(=O)Cc3ccccc3S(N)(=O)=O)n[nH]2)C1 | 9.72
CCCNC(=O)O[C@H]1CC[C@@H](c2cc(NC(=O)c3ccnc(C)c3)n[nH]2)C1 | 8.86
CC1(NC(=O)O[C@@H]2CC[C@H](c3cc(NC(=O)CC4COc5ccccc54)n[nH]3)C2)CCOC1 (single isomer, unassigned) [Example 490] | 8.43

###

# TESTED SYSTEM: GSK3β (H350L) (Homo sapiens (Human), UniProt P49841)
# Sequence (P49841 whole entry, stated change not applied): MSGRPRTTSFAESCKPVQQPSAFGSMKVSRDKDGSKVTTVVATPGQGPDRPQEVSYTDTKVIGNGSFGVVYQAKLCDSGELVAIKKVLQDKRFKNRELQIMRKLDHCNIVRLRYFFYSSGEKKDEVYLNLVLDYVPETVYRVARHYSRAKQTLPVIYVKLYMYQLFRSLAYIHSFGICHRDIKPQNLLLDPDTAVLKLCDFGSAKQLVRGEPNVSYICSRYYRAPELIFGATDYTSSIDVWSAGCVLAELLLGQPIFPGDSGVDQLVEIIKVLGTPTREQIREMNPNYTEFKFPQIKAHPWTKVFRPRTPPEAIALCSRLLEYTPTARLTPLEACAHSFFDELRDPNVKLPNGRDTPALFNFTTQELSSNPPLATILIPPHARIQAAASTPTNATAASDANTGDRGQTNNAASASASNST
# MEASUREMENT CONDITIONS: read-out: GSK3β Ki
pKi: −log10 of the molar value.
condition met means recorded pKi is 8 or above; condition not met means it is below 8.

MOLECULE | CLASS LABEL
Cn1cc(CC(=O)Nc2cc([C@H]3CC[C@@H](OC(=O)N4CCC4(C)C)C3)[nH]n2)cn1 [Example 148] | condition met
CC[C@H](C)NC(=O)O[C@@H]1CC[C@H](c2cc(NC(=O)Cc3ccnc(OC)c3)n[nH]2)C1 [Example 37] | condition not met
COCCn1nccc1C(=O)Nc1cc([C@H]2CC[C@@H](OC(=O)NC(C)C)C2)[nH]n1 [Example 278] | condition not met
CC[C@H](C)NC(=O)O[C@@H]1CC[C@H](c2cc(NC(=O)Cc3cnn(C)c3C)n[nH]2)C1 [Example 337] | condition not met
CCCNC(=O)O[C@@H]1CC[C@H](c2cc(NC(=O)Cc3ccno3)n[nH]2)C1 [Example 169] | condition not met
CC(C)NC(=O)O[C@@H]1CC[C@H](c2cc(NC(=O)Cc3cnn(C)c3)n[nH]2)C1 [Example 60] | condition not met
CC[C@H](C)NC(=O)O[C@@H]1CC[C@H](c2cc(NC(=O)c3ccnn3CCOC)n[nH]2)C1 [Example 51] | condition not met
CCCNC(=O)O[C@H]1CC[C@@H](c2cc(NC(=O)c3ccnc(C)c3)n[nH]2)C1 [Example 170] | condition not met
COc1ccc(CC(=O)Nc2cc([C@@H]3CC[C@H](OC(=O)N[C@H]4CC[C@](C)(O)CC4)C3)[nH]n2)cn1 [Example 571] | condition met
CCCNC(=O)O[C@H]1CC[C@@H](c2cc(NC(=O)Cc3ccc4[nH]c(C)nc4c3)n[nH]2)C1 [Example 23] | condition met
CCN(C)C(=O)O[C@@H]1CC[C@H](c2cc(NC(=O)Cc3ccc(OC)nc3)n[nH]2)C1 [Example 244] | condition met
CCCNC(=O)O[C@@H]1CC[C@H](c2cc(NC(=O)Cc3cnc(OC)s3)n[nH]2)C1 [Example 190] | condition not met

###

Catalogue of compounds with associated pKi
# TESTED SYSTEM: CDK2/Cyclin E1 full length (Homo sapiens (Human), UniProt P24941)
# TEST: CDK2/Cyclin E1 full length mobility shift assay
pKi: −log10 of the molar value.

COMPOUND | pKi
O=C(Cc1cc(F)cc(F)c1)Nc1cc([C@@H]2CC[C@H](OC(=O)NCC3CCCOC3)C2)[nH]n1 (single isomer, unassigned) [Example 515] | 8.90
CCC(NC(=O)O[C@@H]1CC[C@H](c2cc(NC(=O)Cc3cnc(C)s3)n[nH]2)C1)C(F)(F)F (single isomer, unassigned) [Example 404] | 8.86
CC(C)NC(=O)O[C@@H]1CC[C@H](c2cc(NC(=O)Cc3cc(F)cc(F)c3)n[nH]2)C1 [Example 279] | 9.49
O=C(Cc1cc(F)cc(F)c1)Nc1cc([C@H]2CC[C@@H](OC(=O)NC3CCOCC3)C2)[nH]n1 [Example 505] | 8.80
CCNC(=O)O[C@@H]1CC[C@H](c2cc(NC(=O)Cc3ccc(OC)nc3)n[nH]2)C1 [Example 231] | 8.93
Cc1ncc(CC(=O)Nc2cc([C@@H]3CC[C@H](OC(=O)N[C@H]4CC[C@H](O)CC4)C3)[nH]n2)s1 [Example 551] | 9.47
CC(C)(C)NC(=O)O[C@@H]1CC[C@H](c2cc(NC(=O)Cc3coc(C4CC4)n3)n[nH]2)C1 [Example 306] | 8.96
CCN(C)C(=O)O[C@H]1CC[C@@H](c2cc(NC(=O)Cc3ccc(OC)nc3)n[nH]2)C1 [Example 243] | 9.12
Cc1ccc(CC(=O)Nc2cc([C@H]3CC[C@@H](OC(=O)NC4(C)CC4)C3)[nH]n2)nc1 [Example 424] | 9.29
CC[C@H](C)NC(=O)O[C@@H]1CC[C@H](c2cc(NC(=O)Cc3cncc(OC)n3)n[nH]2)C1 [Example 348] | 9.23
Cc1ccc(CC(=O)Nc2cc([C@H]3CC[C@@H](OC(=O)NC(C)CC(F)(F)F)C3)[nH]n2)cn1 (single isomer, unassigned) [Example 76] | 10.00
COCCn1nccc1C(=O)Nc1cc([C@H]2CC[C@@H](OC(=O)N3CC[C@@H]3C)C2)[nH]n1 [Example 594] | 9.21
CCC(NC(=O)O[C@@H]1CC[C@H](c2cc(NC(=O)Cc3ccc(C)nc3)n[nH]2)C1)C(F)(F)F (single isomer, unassigned) [Example 398] | 9.19
CC(C)NC(=O)O[C@H]1CC[C@@H](c2cc(NC(=O)c3cnnn3C)n[nH]2)C1 [Example 261] | 9.00
Cc1cc(CC(=O)Nc2cc([C@H]3CC[C@@H](OC(=O)N4CCCC4(C)C)C3)[nH]n2)on1 [Example 134] | 9.92
CCC1(NC(=O)O[C@@H]2CC[C@H](c3cc(NC(=O)Cc4cnc(C)cn4)n[nH]3)C2)CC1 [Example 449] | 9.41
COCc1cc(C(=O)Nc2cc([C@H]3CC[C@@H](OC(=O)N[C@@H](C)COC)C3)n[nH]2)n(C)n1 [Example 521] | 8.71
CC(C)n1cc(CC(=O)Nc2cc([C@H]3CC[C@@H](OC(=O)NC4(C)CC4)C3)[nH]n2)nn1 [Example 436] | 8.48
C[C@H]1CCCN1C(=O)O[C@@H]1CC[C@H](c2cc(NC(=O)Cc3ccon3)n[nH]2)C1 [Example 628] | 9.04
Cc1cc(CC(=O)Nc2cc([C@H]3CC[C@@H](OC(=O)NC4(C)CC4)C3)[nH]n2)no1 [Example 7] | 9.21
Cc1cnc(CC(=O)Nc2cc([C@H]3CC[C@@H](OC(=O)N4CCC4(C)C)C3)[nH]n2)cn1 [Example 601] | 9.41
O=C(Cc1cc(F)cc(F)c1)Nc1cc([C@@H]2CC[C@H](OC(=O)NC[C@@H]3C[C@H]3CO)C2)[nH]n1 [Example 578] | 8.44
Cc1c(CC(=O)Nc2cc([C@H]3CC[C@@H](OC(=O)NC(C)CC(F)(F)F)C3)[nH]n2)cnn1C (single isomer, unassigned) [Example 401] | 9.47
Cc1cnc(CC(=O)Nc2cc([C@H]3CC[C@@H](OC(=O)NC(C)CC(F)F)C3)[nH]n2)o1 (single isomer, unassigned) [Example 96] | 8.69
CC[C@H](C)NC(=O)O[C@@H]1CC[C@H](c2cc(NC(=O)Cc3cnc(C)s3)n[nH]2)C1 [Example 33] | 9.77
COc1ncc(CC(=O)Nc2cc([C@H]3CC[C@@H](OC(=O)N4CCOC[C@H]4C)C3)[nH]n2)s1 [Example 647] | 8.97
O=C(Cc1ccc(F)cc1)Nc1cc([C@H]2CC[C@@H](OC(=O)NCC(F)F)C2)[nH]n1 [Example 248] | 8.62
CCCNC(=O)O[C@@H]1CC[C@H](c2cc(NC(=O)Cc3ccccc3S(=O)(=O)NC)n[nH]2)C1 [Example 209] | 8.92

###

# TESTED SYSTEM: GSK3β (H350L) (Homo sapiens (Human), UniProt P49841)
# MEASUREMENT CONDITIONS: read-out: GSK3β Ki
pKi: −log10 of the molar value.
Catalogue of compounds with associated pKi

COMPOUND | LIMIT QUALIFIER | pKi
CC(C)(C)NC(=O)O[C@@H]1CC[C@H](c2cc(NC(=O)Cc3ccccn3)n[nH]2)C1 [Example 294] | = | 7.50
CCCNC(=O)O[C@H]1CC[C@@H](c2cc(NC(=O)c3ccnc(OC)c3)n[nH]2)C1 [Example 184] | < | 7.02
Cc1cc(CC(=O)Nc2cc([C@H]3CC[C@@H](OC(=O)N4CCOC[C@@H]4C)C3)[nH]n2)on1 [Example 642] | = | 7.99
C[C@H]1CCCN1C(=O)O[C@@H]1CC[C@H](c2cc(NC(=O)Cc3cnc4ncnn4c3)n[nH]2)C1 [Example 141] | = | 8.24
